Literature compilation of pIC50 measurements on Poly [ADP-ribose] polymerase tankyrase-2 (Homo sapiens, UniProt Q9H2K2).
pIC50: −log10 of the molar value.
value type: pIC50

1) CC(C)(OCCO)c1ccc(-c2ccc(-c3nc4c(c(=O)[nH]3)CSCC4)cc2)cc1: 8.19
2) O=C(N[C@H]1CC[C@H](C(=O)Nc2ccc(F)cc2Cl)CC1)c1cnc2ccc(O)nn12: 5.77
3) CCC(C)C1Cc2[nH]c(=O)c3ccccc3c2CO1 (centres unmarked): 7.05
4) COCc1cc(C)n2ncc(C(=O)N[C@H]3CC[C@@]4(CCN(c5c(F)cc(F)cc5Cl)C4=O)CC3)c2n1: 7.68
5) Cn1ncc2c(=O)[nH]c(N3CCN(c4ccc(C(C)(C)O)cc4F)CC3)nc21: 7.02
6) O=C(N[C@H]1CC[C@@]2(CCN(c3cccc(Cl)c3)C2=O)CC1)c1cnn2cccnc12: 6.64

(P) COCCOc1cc(F)c(N2CCN(c3nc4c(cnn4C)c(=O)[nH]3)CC2)c(F)c1
(Q) Cc1nc2c(C(=O)N[C@H]3CC[C@H](C(=O)Nc4ccc(F)cc4Cl)CC3)cnn2c2c1CCC2
Please compare: P and Q . Report which one has the smaller pIC50 value. To answer, give the label that identifies your chosen option.
Q
(Q: 7.28, P: 7.61)

(a) O=C(NCCC1CC1)c1nc[nH]c1C(=O)N[C@H]1CC[C@H](C(=O)Nc2ccc(F)cc2Cl)CC1
(b) O=C(NCCN1CCCCC1)c1nc[nH]c1C(=O)N[C@H]1CC[C@H](C(=O)Nc2cc(F)c(F)cc2Cl)CC1
Task for the reader: decide whether a or b has the larger pIC50. To answer, give the label that identifies your chosen option.
b

(1) CNc1ccc2ncc(C(=O)N[C@H]3CC[C@H](C(=O)Nc4ccc(F)cc4Cl)CC3)n2n1
(2) O=C(N[C@H]1CC[C@H](C(=O)Nc2ccc(F)cc2Cl)CC1)c1cnc2ccc(Cl)nn12
(3) CC(C)NC(=O)c1nc[nH]c1C(=O)N[C@H]1CC[C@H](C(=O)Nc2ccc(F)cc2Cl)CC1
// smallest pIC50 at index 0, largest at the end // ordering of labels required in reply
2, 3, 1
(2: 6.38, 3: 6.89, 1: 7.33)

(I) COCCNC(=O)c1nc[nH]c1C(=O)N[C@H]1CC[C@@]2(CCCN(c3cc(C)c(F)cc3Cl)C2=O)CC1
(II) COCCOc1cc(F)cc(N2CCN(c3nc4c(cnn4C)c(=O)[nH]3)CC2)c1
Task for the reader: decide whether I or II has the larger pIC50. To answer, give the label that identifies your chosen option.
I

(A) O=C(N[C@H]1CC[C@@]2(CCCN(c3ccc(F)cc3Cl)C2=O)CC1)c1[nH]cnc1C(=O)N1CC(F)C1
(B) Cn1ncc2c(=O)[nH]c(N3CCN(c4c(F)cc(C#N)cc4F)CC3)nc21
(C) O=C(N[C@H]1CC[C@@]2(CCN(c3ccccc3Cl)C2=O)CC1)c1cnc2cccnn12
// smallest pIC50 at index 0, largest at the end // ordering of labels required in reply
B, A, C
(B: 7.20, A: 7.54, C: 8.23)

(A) CCNC(=O)c1ccc(N2CCN(c3nc4c(ccn4C)c(=O)[nH]3)CC2)cc1
(B) O=C(NCC1CCCO1)c1nc[nH]c1C(=O)N[C@H]1CC[C@H](C(=O)Nc2ccc(F)cc2Cl)CC1 (some centres unmarked)
(C) O=C(N[C@H]1CC[C@@]2(CCN(c3ccccc3Cl)C2=O)CC1)c1[nH]cnc1C(=O)N1CC(F)C1
(D) O=c1[nH]c(-c2ccc(C(F)(F)F)cc2)nc2c1ccn2CCC(O)CO (centres unmarked)
(E) C[C@]1(C(=O)Nc2ccc(F)cc2Cl)CC[C@H](NC(=O)c2cnn3cccnc23)CC1
Please give the order of these compounds when sorted by pIC50, largest value leading. // ordering of labels required in reply
C, A, B, D, E

(a) CC(C)C1Cc2[nH]c(=O)c3cnccc3c2CO1 (racemic)
(b) O=C(N[C@H]1CC[C@@]2(CCN(c3ccc(F)cc3)C2=O)CC1)c1cnn2cccnc12
Please compare: a and b . Report which one has the smaller pIC50 value. To answer, give the label that identifies your chosen option.
b
(b: 6.62, a: 7.16)

---

pIC50: −log10 of the molar value.
Literature compilation of pIC50 measurements on Poly [ADP-ribose] polymerase tankyrase-2 (Homo sapiens).
value type: pIC50

Field: example entries. Status: answers known.
1. Cn1ncc2c(=O)[nH]c(N3CCN(c4c(F)cccc4F)CC3)cc21: 7.64
2. Cn1ccc2c(=O)[nH]c(-c3ccc(C(F)(F)F)cc3)cc21: 7.41

(1) CC(C)(C)C1Cc2[nH]c(=O)c3cnccc3c2CO1 (racemic)
(2) CCNC(=O)c1nc[nH]c1C(=O)N[C@H]1CC[C@@]2(CCN(c3cc(C)c(F)cc3Cl)C2=O)CC1
(3) Cn1nc(C(=O)N[C@H]2CC[C@@]3(CCN(c4ccc(F)cc4Cl)C3=O)CC2)c2ccccc21
(4) O=C(NC12CCC(C(=O)Nc3cnccc3Cl)(CC1)CC2)c1cnn2cccnc12
(5) O=C(N[C@H]1CC[C@]2(CCN(c3ccc(F)cc3Cl)C2=O)CC1)c1[nH]cnc1C(=O)N1CC(F)C1
Please give the order of these compounds when sorted by pIC50, largest value leading. // ordering of labels required in reply
2, 1, 4, 5, 3
(2: 8.54, 1: 7.31, 4: 6.59, 5: 6.07, 3: 5.22)

---

pIC50: −log10 of the molar value.
Literature compilation of pIC50 measurements on Poly [ADP-ribose] polymerase tankyrase-2 (Homo sapiens, UniProt Q9H2K2).
value type: pIC50

Field: example entries. Status: answers known.
1) Cn1ccc2c(=O)[nH]c(N3CCN(c4cccc(C#N)c4)CC3)nc21: 7.05
2) Cn1ncc2c(=O)[nH]c(N3CCC(O)(c4ccccn4)CC3)nc21: 7.02
3) CNC(=O)c1nc[nH]c1C(=O)N[C@H]1CC[C@H](C(=O)Nc2cc(C(C)(C)O)ccc2Cl)CC1: 5.82
4) O=C(N[C@H]1CC[C@@]2(CCN(c3ccc(F)cc3Cl)C2=O)CC1)c1cnc2c(NCCC(F)(F)F)cc(Cl)nn12: 7.37

(P) O=C(N[C@H]1CC[C@@]2(CCN(c3cc(F)cc(F)c3)C2=O)CC1)c1cnn2cccnc12
(Q) CCNC(=O)c1nc[nH]c1C(=O)N[C@H]1CC[C@@]2(CCN(c3cccc(Cl)c3)C2=O)CC1
Task for the reader: decide whether P or Q has the larger pIC50. To answer, give the label that identifies your chosen option.
Q
(Q: 6.82, P: 6.14)

---

pIC50: −log10 of the molar value.
Literature compilation of pIC50 measurements on Poly [ADP-ribose] polymerase tankyrase-2 (Homo sapiens).
value type: pIC50

(a) Cc1cc(N2CC[C@]3(CC[C@@H](NC(=O)c4cnc5cccnn45)CC3)C2=O)c(Cl)cc1F
(b) CNC(=O)c1nc[nH]c1C(=O)N[C@H]1CC[C@H](C(=O)N(C)c2ccccc2C)CC1
Please compare: a and b . Report which one has the smaller pIC50 value. To answer, give the label that identifies your chosen option.
b
(b: 6.32, a: 8.32)

(a) O=C(C1CC1)N1CCC(C2Cc3[nH]c(=O)c4ccccc4c3CO2)C1 (centres unmarked)
(b) CNC(=O)c1nc[nH]c1C(=O)N[C@H]1CC[C@H](C(=O)Nc2c(F)cc(F)cc2Br)CC1
(c) Cc1cc(N2CCC[C@]3(CC[C@@H](NC(=O)c4[nH]cnc4C(=O)NCCN4CCC(C)CC4)CC3)C2=O)c(Cl)cc1F
// smallest pIC50 at index 0, largest at the end // ordering of labels required in reply
a, b, c
(a: 7.18, b: 7.59, c: 8.39)

(A) O=C(N[C@H]1CC[C@@]2(CCN(c3c(F)cc(F)cc3Cl)C2=O)CC1)c1cnc2cccnn12
(B) O=c1[nH]c(-c2ccc(-c3ncc(B(O)O)cn3)cc2)nc2c1CSCC2
Task for the reader: decide whether A or B has the larger pIC50. To answer, give the label that identifies your chosen option.
B

---

Literature compilation of IC50 measurements on Poly [ADP-ribose] polymerase tankyrase-2 (Homo sapiens, UniProt Q9H2K2).
value type: IC50 (nM)

Field: example entries. Status: answers known.
1. CC1C[C@]2(CC[C@@H](NC(=O)c3cnn4cccnc34)CC2)C(=O)N1c1ccc(F)cc1Cl (mixture of isomers): 8.4
2. Cn1ccc2c(=O)[nH]c(N3CC(C)(c4ccccc4)C3)nc21: 100

(1) O=c1[nH]c(N2CCC(c3ccc(F)cc3)CC2)cc2[nH]ncc12
(2) O=C(NC1CC1)c1nc[nH]c1C(=O)N[C@H]1CC[C@@]2(CCN(c3cc(F)c(F)cc3Cl)C2=O)CC1
Please compare: 1 and 2 . Report which one has the smaller IC50 value. To answer, give the label that identifies your chosen option.
2
